test: Viability qHTS for spleen associated tyrosine kinase inhibitor (SYKi) naive MV4-11 cells (AID 1963823); conditions: MV4-11 AML viability, CellTiter-Glo luminescence, 72 h; series mostly up to 45 µM; also: nearly all actives have a fitted effect of over 40% in size
Results filed as inconclusive are left out. Calls of active or inactive are those of the source. Calls follow the shape of the dose curve; as a rule, active = well fitted cell-killing curve with a large enough effect; inconclusive = small, poorly fitted or top-dose-only effect, or effect the other way; inactive = no such curve, though single readings can be large or run the other way.
Just give me one of these, please: yes for active, no for inactive

| molecule | discrete-label |
| --- | --- |
| CNS(=O)(=O)c1ccc2c(c1)/C(=C/c1[nH]c3c(c1CCCN1CCN(C)CC1)CCCC3)C(=O)N2 | yes |
| CC1(N)CCN(c2cccnc2NC(=O)c2nc(-c3ncccc3C(F)(F)F)cnc2N)CC1 | yes |
| C=C1C(=O)O[C@@H]2C3=C(C)CCC[C@]3(C)CC[C@@]12O | yes |
| C[C@](Cc1c[nH]c2ccccc12)(NC(=O)OC1C2CC3CC(C2)CC1C3)C(=O)NC[C@H](NC(=O)CCC(=O)O)c1ccccc1 (some centres not stated) | no |
| CC(C)C1(O)NC(=O)C(CC2(O)c3ccccc3N3C(=O)C(C)(C)NC32)n2c1nc1ccccc1c2=O (configuration not stated) | no |

## Input So what was the verdict on OC[C@H]1O[C@@H](O[C@@H]2OC=C[C@H]3[C@H](O)[C@@H]4O[C@]4(CO)[C@@H]23)[C@H](O)[C@@H](O)[C@@H]1O in this test?
## Output no

## Input So what was the verdict on CCN1CCCC1=O in this test?
## Output no

## Input So what was the verdict on CC(=O)Nc1cccc2c1c(Sc1ccc(Cl)cc1)c(C)n2CC(=O)O in this test?
## Output no

## Input So what was the verdict on CCOC(=O)c1ccc(N)cc1 in this test?
## Output no

## Input So what was the verdict on C1N2CN3CN1CN(C2)C3 in this test?
## Output no

## Input So what was the verdict on CCOC(=O)c1cnc2ccc(-c3cncc(NS(=O)(=O)c4ccccc4)c3)cn12 in this test?
## Output yes
